Settings: 298.15 K; 20000 kPa; Liquid; Vibrating tube method
metric: mass density (kg/m3)

[
  {
    "compound": "CC(C)C(C)C [2,3-dimethylbutane]",
    "metric": "mass density",
    "quantityUnit": "kg/m3",
    "measValue": 677.49
  },
  {
    "compound": "CCC(C)CC [3-methylpentane]",
    "metric": "mass density",
    "quantityUnit": "kg/m3",
    "measValue": 679.53
  },
  {
    "compound": "CCCC(C)C [2-methylpentane]",
    "metric": "mass density",
    "quantityUnit": "kg/m3",
    "measValue": 669.38
  },
  {
    "compound": "CCC(C)(C)C [2,2-dimethylbutane]",
    "metric": "mass density",
    "quantityUnit": "kg/m3",
    "measValue": 666.62
  }
]

---

Conditions: 308.15 K; 7000 kPa; Liquid; Vibrating tube method
± gives the expanded uncertainty stated by the source.
Readings of mass density for the listed compounds

[
  {
    "structureSmiles": "CCCC(C)C",
    "mass density": "647.77 ± 0.37 kg/m3"
  },
  {
    "structureSmiles": "CCC(C)(C)C",
    "mass density": "644.04 ± 0.38 kg/m3"
  },
  {
    "structureSmiles": "CC(C)C(C)C",
    "mass density": "656.12 ± 0.37 kg/m3"
  },
  {
    "structureSmiles": "CCC(C)CC",
    "mass density": "658.61 ± 0.37 kg/m3"
  }
]

---

Readings of mass density for the listed molecules
Settings: 283.15 K; 30000 kPa; Liquid; Vibrating tube method
± gives the expanded uncertainty stated by the source.

[
  {
    "structureSmiles": "CC(C)C(C)C",
    "mass density": "697.12 ± 0.6 kg/m3"
  },
  {
    "structureSmiles": "CCCC(C)C",
    "mass density": "689.02 ± 0.61 kg/m3"
  },
  {
    "structureSmiles": "CCC(C)CC",
    "mass density": "698.81 ± 0.59 kg/m3"
  },
  {
    "structureSmiles": "CCC(C)(C)C",
    "mass density": "686.83 ± 0.61 kg/m3"
  }
]

---

Readings of mass density for the listed compounds
Conditions: 298.15 K; 100 kPa; Liquid; Vibrating tube method
metric: mass density (kg/m3)

[
  {
    "structureSmiles": "CCC(C)CC",
    "measValue": 659.73
  },
  {
    "structureSmiles": "CCCC(C)C",
    "measValue": 648.63
  },
  {
    "structureSmiles": "CC(C)C(C)C",
    "measValue": 657
  },
  {
    "structureSmiles": "CCC(C)(C)C",
    "measValue": 644.46
  }
]

---

Settings: 288.15 K; 5000 kPa; Liquid; Vibrating tube method
Numbers after ± are expanded uncertainties.

[
  {
    "structureSmiles": "CCC(C)(C)C",
    "mass density": "659.62 ± 0.35 kg/m3"
  },
  {
    "structureSmiles": "CCC(C)CC",
    "mass density": "673.95 ± 0.35 kg/m3"
  },
  {
    "structureSmiles": "CCCC(C)C",
    "mass density": "663.16 ± 0.35 kg/m3"
  },
  {
    "structureSmiles": "CC(C)C(C)C",
    "mass density": "671.5 ± 0.35 kg/m3"
  }
]

Numbers sourced from the NIST ThermoML archive (doi:10.1016/j.fluid.2012.11.013).
